test system: KB3-1 human epidermoid carcinoma tumor cells; experiment: MTT cytotoxicity assay (Test B); format: cell-based; settings: KB 3-1, 96 h, cells cultured 4 days
The molecules listed here are annotated with their IC50.

- smiles_entry: "CN(C)CCc1oc2nc1C(=O)NCc1cccc(c1)CNC(=O)c1nc(oc1CCN(C)C)-c1coc(n1)-c1cccc(n1)-c1nc-2co1"
  IC50: "100 nM"
- smiles_entry: "O=C1NCc2cc(Br)cc(c2)CNC(=O)c2coc(n2)-c2coc(n2)-c2cc(OCCCN3C(=O)c4ccccc4C3=O)cc(n2)-c2nc(co2)-c2nc1co2"
  IC50: "1000 nM"
- smiles_entry: "O=C1NCc2cccc(c2)CNC(=O)c2coc(n2)-c2coc(n2)-c2cccc(n2)-c2nc(co2)-c2nc1co2"
  IC50: "1200 nM"
- smiles_entry: "O=C(NCCc1cc2cc(c1)CNC(=O)c1coc(n1)-c1coc(n1)-c1cc(OCCCN3C(=O)c4ccccc4C3=O)cc(n1)-c1nc(co1)-c1nc(co1)C(=O)NC2)OCc1ccccc1"
  IC50: "> 10000 nM"
- smiles_entry: "NCCc1cc2cc(c1)CNC(=O)c1coc(n1)-c1coc(n1)-c1cccc(n1)-c1nc(co1)-c1nc(co1)C(=O)NC2"
  IC50: "30 nM"
- smiles_entry: "O=C1NCc2cccc(n2)CNC(=O)c2coc(n2)-c2coc(n2)-c2cccc(n2)-c2nc(co2)-c2nc1co2"
  IC50: "> 5000 nM"
- smiles_entry: "CC(=O)NCCCOc1cc2nc(c1)-c1nc(co1)-c1nc(co1)C(=O)NCc1cccc(c1)CNC(=O)c1coc(n1)-c1coc-2n1"
  IC50: "10000 nM"
- smiles_entry: "O=C1NCc2cccc(c2)CNC(=O)c2coc(n2)-c2coc(n2)-c2cc(OCCCN3C(=O)c4ccccc4C3=O)cc(n2)-c2nc(co2)-c2nc1co2"
  IC50: "400 nM"
- smiles_entry: "NCCCOc1cc2nc(c1)-c1nc(co1)-c1nc(co1)C(=O)NCc1cccc(c1)CNC(=O)c1coc(n1)-c1coc-2n1"
  IC50: "3000 nM"
- smiles_entry: "O=C1NCc2cc(CCNC(=O)C(F)(F)F)cc(c2)CNC(=O)c2coc(n2)-c2coc(n2)-c2cccc(n2)-c2nc(co2)-c2nc1co2"
  IC50: "70 nM"
- smiles_entry: "CC(C)(C)OC(=O)NCCc1cc2cc(c1)CNC(=O)c1coc(n1)-c1coc(n1)-c1cccc(c1)-c1nc(co1)-c1nc(co1)C(=O)NC2"
  IC50: "3100 nM"
- smiles_entry: "O=C1NCc2cc(Br)cc(c2)CNC(=O)c2coc(n2)-c2coc(n2)-c2cc(Br)cc(n2)-c2nc(co2)-c2nc1co2"
  IC50: "> 10000 nM"
- smiles_entry: "O=C(NCCc1cc2cc(c1)CNC(=O)c1coc(n1)-c1coc(n1)-c1cccc(n1)-c1nc(co1)-c1nc(co1)C(=O)NC2)OCc1ccccc1"
  IC50: "120 nM"
- smiles_entry: "O=C1NCc2cccc(c2)CNC(=O)c2coc(n2)-c2csc(n2)-c2cccc(n2)-c2nc(cs2)-c2nc1co2"
  IC50: "> 10000 nM"
- smiles_entry: "CN(C)CCc1cc2cc(c1)CNC(=O)c1coc(n1)-c1coc(n1)-c1cccc(n1)-c1nc(co1)-c1nc(co1)C(=O)NC2"
  IC50: "40 nM"
- smiles_entry: "O=C(NCCc1cc2cc(c1)CNC(=O)c1coc(n1)-c1coc(n1)-c1cc(Br)cc(n1)-c1nc(co1)-c1nc(co1)C(=O)NC2)OCc1ccccc1"
  IC50: "600 nM"
- smiles_entry: "O=C1NCc2cccc(c2)CNC(=O)c2coc(n2)-c2coc(n2)-c2cc(Br)cc(n2)-c2nc(co2)-c2nc1co2"
  IC50: "150 nM"

----------
property_name: melting point

- smiles_entry: "O=C1NCc2cccc(c2)CNC(=O)c2coc(n2)-c2csc(n2)-c2cccc(n2)-c2nc(cs2)-c2nc1co2"
  reported_measurement: "245 °C"
- smiles_entry: "O=C1NCc2cc(CCNC(=O)C(F)(F)F)cc(c2)CNC(=O)c2coc(n2)-c2coc(n2)-c2cc(Br)cc(n2)-c2nc(co2)-c2nc1co2"
  reported_measurement: "305 to 307 °C (dec.)"
- smiles_entry: "O=C1NCc2cc(Br)cc(c2)CNC(=O)c2coc(n2)-c2coc(n2)-c2cc(OCCCN3C(=O)c4ccccc4C3=O)cc(n2)-c2nc(co2)-c2nc1co2"
  reported_measurement: "289 to 290 °C (dec.)"
- smiles_entry: "O=C1NCc2cccc(c2)CNC(=O)c2coc(n2)-c2coc(n2)-c2cc(OCCCN3C(=O)c4ccccc4C3=O)cc(n2)-c2nc(co2)-c2nc1co2"
  reported_measurement: "249 to 252 °C (dec.)"
- smiles_entry: "O=C(NCCc1cc2cc(c1)CNC(=O)c1coc(n1)-c1coc(n1)-c1cc(Br)cc(n1)-c1nc(co1)-c1nc(co1)C(=O)NC2)OCc1ccccc1"
  reported_measurement: "204 to 205 °C"
